Just for reference, PubChem BioAssay is where these values come from.

EXPERIMENTAL SYSTEM: Dickkopf-related protein 1 (Homo sapiens) (UniProt O94907)
Sequence (O94907 whole entry, looked up): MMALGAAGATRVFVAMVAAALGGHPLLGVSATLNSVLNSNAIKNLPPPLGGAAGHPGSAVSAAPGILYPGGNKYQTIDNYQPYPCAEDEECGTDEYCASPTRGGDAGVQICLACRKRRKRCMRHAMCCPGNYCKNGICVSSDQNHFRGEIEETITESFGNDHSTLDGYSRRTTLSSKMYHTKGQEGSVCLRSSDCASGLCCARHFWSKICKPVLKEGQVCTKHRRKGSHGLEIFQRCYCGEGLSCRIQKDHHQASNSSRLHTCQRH
EXPERIMENT SUMMARY: DKK1 binders on small-molecule microarrays, primary screen, biochemical, small-molecule microarray, 635 nm fluorescence scan (AID 1106);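 further: score merges emission near 667 nm with signal to noise over three replicate slides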
STUDY CONDITIONS: DKK1 binding, higher = more signal
Would you mind classing the entries by composite z-score? Ranges: I (below -0.2), II (-0.2 to below 0.3), III (0.3 or more)

| COMPOUND | EXPERIMENTAL SYSTEM | ASSIGNED LABEL |
| --- | --- | --- |
| O=C1O[C@@H](c2ccccc2)[C@@H](c2ccccc2)N2[C@@H](c3ccccc3OCCO)[C@]3(C(=O)Nc4ccccc43)[C@@H](C(=O)Nc3nc4ccccc4s3)[C@H]12 | Dickkopf-related protein 1 (Homo sapiens) (UniProt O94907) | II |
| C[N+](C)(C)CCCCNC(=O)[C@H]1C[C@H]2C(=O)N3CCC[C@H]3C(=O)N2[C@H]1c1cccc(OCCO)c1 | Dickkopf-related protein 1 (Homo sapiens) (UniProt O94907) | III |
| COc1cc2c(cc1OC)CN(C(=O)[C@@H]1[C@H]3C(=O)O[C@H](c4ccccc4)[C@H](c4ccccc4)N3[C@H](c3ccc(O)cc3)[C@@]13C(=O)Nc1ccccc13)CC2 | Dickkopf-related protein 1 (Homo sapiens) (UniProt O94907) | II |
| COc1ccc(/C=C/C=O)cc1 | Dickkopf-related protein 1 (Homo sapiens) (UniProt O94907) | III |
| C=C(/C(=C/C[C@H](OC(C)=O)c1ccc(CO)o1)c1cc(C(=O)OC)ccc1OC)C(C)C | Dickkopf-related protein 1 (Homo sapiens) (UniProt O94907) | II |
| COC(=O)[C@@]1(Cc2ccc(OC)cc2)[C@@H]2C(=CC(=O)[C@H]2CC(=O)C(=O)N2CCCC2)CN1C(=O)c1ccccc1 | Dickkopf-related protein 1 (Homo sapiens) (UniProt O94907) | I |
| O=C(NCCO)C1=C[C@H](Oc2ccccc2I)[C@@H](O)[C@H](N(Cc2ccco2)C(=O)Cc2ccccc2)C1 | Dickkopf-related protein 1 (Homo sapiens) (UniProt O94907) | III |
| COc1cc2c(cc1O)C(c1cccs1)N(C)CC2 (centres undefined) | Dickkopf-related protein 1 (Homo sapiens) (UniProt O94907) | I |
| NC(=O)N1C(=O)C2C(C1=O)C1C=C(c3ccc(CO)cc3)C2C(c2cccs2)N1Cc1cccc(OC(F)(F)F)c1 (centres undefined) | Dickkopf-related protein 1 (Homo sapiens) (UniProt O94907) | II |
| O=C1C2C=CC(C(O)c3cc(C(F)(F)F)cc(C(F)(F)F)c3)N(n3cnnc3)C2C(=O)N1Cc1ccccc1 (centres undefined) | Dickkopf-related protein 1 (Homo sapiens) (UniProt O94907) | I |
| COC(=O)[C@@]1(Cc2ccc(OC)cc2)[C@H]2c3cc(C(=O)N(C)C)n(Cc4ccccn4)c3C[C@H]2CN1C(=O)c1ccccc1 | Dickkopf-related protein 1 (Homo sapiens) (UniProt O94907) | I |
| O=C1C[C@@](C(=O)NC2CC2)(c2ccc([N+](=O)[O-])cc2)[C@@H](c2ccc(CO)cc2I)N1C1CCCCC1 | Dickkopf-related protein 1 (Homo sapiens) (UniProt O94907) | III |
| CC1CC/C=C\[C@H]2OC34C=CCN(Cc5ccccc5)C(=O)[C@H]3N(CCCO)C(=O)[C@@H]4C2C(=O)O1 (some centres undefined) | Dickkopf-related protein 1 (Homo sapiens) (UniProt O94907) | I |
| COC(=O)[C@@]1(Cc2ccc(F)cc2)[C@H]2c3cc(C(=O)N(C)C)n(Cc4cc(F)c(F)c(F)c4)c3C[C@H]2CN1C(=O)c1ccccc1 | Dickkopf-related protein 1 (Homo sapiens) (UniProt O94907) | I |
| CC(C)NC(=O)[C@@]1(C)c2ccccc2C(=O)N(Cc2cc(C(F)(F)F)cc(C(F)(F)F)c2)[C@H]1c1ccc(CO)cc1 | Dickkopf-related protein 1 (Homo sapiens) (UniProt O94907) | I |
| CCCCCCc1nc(-c2cc(C)c(OC)c(C)c2)cc2c1[Si](C(C)C)(C(C)C)OC2 | Dickkopf-related protein 1 (Homo sapiens) (UniProt O94907) | II |
| CN(C)CCCCCCNC(=O)[C@H]1C[C@H]2C(=O)N3CCC[C@H]3C(=O)N2[C@H]1c1ccc(O)cc1 | Dickkopf-related protein 1 (Homo sapiens) (UniProt O94907) | III |
| CO[C@H]1O[C@H](CO)[C@@H](OC(=O)Nc2cccc(F)c2)[C@H](OC(=O)Nc2ccccc2)[C@@H]1OC(=O)Nc1ccccc1 | Dickkopf-related protein 1 (Homo sapiens) (UniProt O94907) | I |
| O=C(CS)NCCCCCCNC(=O)[C@@H]1C[C@@H]2C(=O)NCC(=O)N2[C@@H]1c1cccc(OCCO)c1 | Dickkopf-related protein 1 (Homo sapiens) (UniProt O94907) | II |
| CC1(C)[C@@H]2CC(C(O)C3C=CC4C(=O)N(Cc5ccccc5)C(=O)C4N3n3cnnc3)=C[C@H]1C2 (some centres undefined) | Dickkopf-related protein 1 (Homo sapiens) (UniProt O94907) | II |
| C=CCC(OC(C)=O)[C@@H]1[C@@H](N(Cc2cc3ccccc3o2)C(=O)c2cccc3ccccc23)c2cc(OCCCO)ccc2N1C(=O)c1ccc(-c2ccccc2)cc1 (some centres undefined) | Dickkopf-related protein 1 (Homo sapiens) (UniProt O94907) | II |
| COCCOC(=O)N1C(=O)[C@@]2(c3cc(C#CCC(C(=O)OC)C(=O)OC)ccc31)[C@H](c1ccccc1OCCO)N1[C@H](c3ccccc3)[C@H](c3ccccc3)OC(=O)[C@H]1[C@@H]2C(=O)N1CCN(c2ncccn2)CC1 | Dickkopf-related protein 1 (Homo sapiens) (UniProt O94907) | III |
| C=C(C)[C@@H]1CC=C(C(O)C2C=CC3C(=O)N(C)C(=O)C3N2Nc2ccccc2)CC1 (some centres undefined) | Dickkopf-related protein 1 (Homo sapiens) (UniProt O94907) | III |
| CCS[C@H]1[C@@H](C(=O)O)[C@H](c2ccc(C)cc2)N(S(=O)(=O)c2ccc(C)cc2)[C@@H]1CC | Dickkopf-related protein 1 (Homo sapiens) (UniProt O94907) | II |
| CCCCCCc1nc(-c2ccc(OC)nc2)cc2c1[Si](C(C)C)(C(C)C)O[C@H]2c1ccccc1 | Dickkopf-related protein 1 (Homo sapiens) (UniProt O94907) | II |
| COCCOC(=O)N1C(=O)[C@@]2(c3cc(C#CCNC(N)=O)ccc31)[C@H](C(=O)Nc1nc3ccccc3s1)[C@H]1C(=O)O[C@H](c3ccccc3)[C@H](c3ccccc3)N1[C@@H]2c1ccc(OCCO)cc1 | Dickkopf-related protein 1 (Homo sapiens) (UniProt O94907) | III |
| CC(C)C(CO)N1C(=O)[C@@H]2C3C(=O)OCCC/C=C\[C@H]3OC23C=CCN(CCN2CCOCC2)C(=O)[C@@H]13 (some centres undefined) | Dickkopf-related protein 1 (Homo sapiens) (UniProt O94907) | II |
| CCCC[C@@H]1C[C@H]1[C@@H](NC(=O)c1ccco1)c1ccc(-c2ccccc2)cc1 | Dickkopf-related protein 1 (Homo sapiens) (UniProt O94907) | I |

====

EXPERIMENTAL SYSTEM: Focal adhesion kinase 1 (Homo sapiens) (UniProt Q05397)
Sequence (Q05397 whole entry, looked up): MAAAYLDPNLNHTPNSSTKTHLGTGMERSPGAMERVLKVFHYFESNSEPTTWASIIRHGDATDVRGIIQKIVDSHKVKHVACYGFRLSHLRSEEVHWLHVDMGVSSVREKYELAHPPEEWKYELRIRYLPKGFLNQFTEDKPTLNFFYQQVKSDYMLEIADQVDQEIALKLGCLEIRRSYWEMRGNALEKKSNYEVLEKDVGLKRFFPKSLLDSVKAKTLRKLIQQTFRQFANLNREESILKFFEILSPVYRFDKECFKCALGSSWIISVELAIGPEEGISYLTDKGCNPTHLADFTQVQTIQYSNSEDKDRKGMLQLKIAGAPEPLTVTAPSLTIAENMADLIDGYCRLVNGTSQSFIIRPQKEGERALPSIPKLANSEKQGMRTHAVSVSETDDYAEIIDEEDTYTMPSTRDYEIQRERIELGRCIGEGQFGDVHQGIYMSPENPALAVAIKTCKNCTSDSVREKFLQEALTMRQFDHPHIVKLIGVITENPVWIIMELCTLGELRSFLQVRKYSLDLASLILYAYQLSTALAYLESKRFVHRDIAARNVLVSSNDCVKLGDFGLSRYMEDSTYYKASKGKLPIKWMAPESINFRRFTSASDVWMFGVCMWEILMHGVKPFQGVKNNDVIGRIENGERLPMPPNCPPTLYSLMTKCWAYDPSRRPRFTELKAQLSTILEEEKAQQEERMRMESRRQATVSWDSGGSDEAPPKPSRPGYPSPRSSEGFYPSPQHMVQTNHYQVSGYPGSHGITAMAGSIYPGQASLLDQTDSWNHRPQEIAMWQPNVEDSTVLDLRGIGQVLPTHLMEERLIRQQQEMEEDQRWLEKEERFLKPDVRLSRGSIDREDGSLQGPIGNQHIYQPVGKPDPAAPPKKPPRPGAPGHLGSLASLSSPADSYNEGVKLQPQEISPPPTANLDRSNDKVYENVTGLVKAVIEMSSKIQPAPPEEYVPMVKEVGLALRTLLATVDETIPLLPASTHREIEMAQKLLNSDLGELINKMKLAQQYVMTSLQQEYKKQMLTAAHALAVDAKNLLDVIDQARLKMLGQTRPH
EXPERIMENT SUMMARY: small-molecule microarray binders of FAK, primary screen, biochemical, 635/667 nm fluorescence, BSA, DTT (AID 1130);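 further: composite of spot emission at 667 nm and signal to noise over triplicate slides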
STUDY CONDITIONS: PTK2 binding, 635 nm fluorescence, higher = more signal
MEASUREMENT KIND: composite z-score

| COMPOUND | MEASUREMENT KIND | OBS VALUE |
| --- | --- | --- |
| C=CCOC(=O)[C@H]1[C@@H]2C(=O)O[C@@H](c3ccccc3)[C@@H](c3ccccc3)N2[C@@H](c2ccc(OCCOC(=O)[C@H]3C[C@H]4C(=O)N[C@@H](CCCCN(C)C)C(=O)N4[C@H]3c3ccc(O)cc3)cc2)[C@]12C(=O)Nc1ccc(I)cc12 | composite z-score | 0.739 |
| COCCCNC(=O)[C@@]1(C)c2ccccc2C(=O)N(C(C)C)[C@H]1c1ccc(CO)cc1 | composite z-score | 0.624 |
| COCCCNC(=O)[C@@H]1c2ccccc2C(=O)N(Cc2ccccc2Cl)[C@H]1c1ccc(CO)cc1 | composite z-score | 0.36 |
| O=C1O[C@@H](c2ccccc2)[C@@H](c2ccccc2)N2[C@@H](c3ccccc3OCCO)[C@]3(C(=O)Nc4ccccc43)[C@@H](C(=O)Nc3nc4ccccc4s3)[C@H]12 | composite z-score | 0.467 |
| CC1CC/C=C\[C@H]2OC34C=CCN(Cc5ccccc5)C(=O)[C@H]3N(CCCO)C(=O)[C@@H]4C2C(=O)O1 (some centres undefined) | composite z-score | -0.364 |
| CC1CC/C=C\[C@H]2OC34C=CCN(C(C)(C)C)C(=O)[C@H]3N(C(C)CO)C(=O)[C@@H]4C2C(=O)O1 (some centres undefined) | composite z-score | -0.9 |
| CCC(CC)C(O)C1C=CC2C(=O)NC(=O)C2N1Nc1ccccn1 (centres undefined) | composite z-score | 0.268 |
| COc1ccc(C#Cc2ccc3c(c2)[C@]2(C(=O)N3)[C@H](c3ccccc3OCCO)N3[C@H](c4ccccc4)[C@H](c4ccccc4)OC(=O)[C@H]3[C@@H]2C(=O)Nc2nc3ccccc3s2)cc1 | composite z-score | 0.717 |
| C[C@@]1([C@@H](NC(=O)c2ccc(-c3ccccc3)cc2)c2ccc(Cl)cc2)C[C@H]1C1CCCCC1 | composite z-score | 0.473 |
| CN(C)CCCCCCNC(=O)[C@H]1C[C@H]2C(=O)N3CCC[C@H]3C(=O)N2[C@H]1c1ccc(O)cc1 | composite z-score | 1.03 |
| O=C1C[C@]2(c3ccc([N+](=O)[O-])cc3)C(=O)N(CC(F)(F)F)c3cc(CO)ccc3[C@H]2N1C1CCCCC1 | composite z-score | 0.114 |
| COc1ccc(C(O)C2C=CC3C(=O)N(Cc4ccccc4)C(=O)C3N2n2cnnc2)cc1OCc1ccccc1 (centres undefined) | composite z-score | 1.23 |
| C=CCC(OC(C)=O)[C@@H]1[C@@H](N(Cc2ccc(-c3ccccc3)cc2)C(=O)c2cccc3ccccc23)c2cc(OCCCO)ccc2N1C(=O)c1ccc(-c2ccccc2)cc1 (some centres undefined) | composite z-score | 0.0082 |
| O=C1O[C@@H](c2ccccc2)[C@@H](c2ccccc2)N2[C@@H](c3ccccc3OCCO)[C@]3(C(=O)Nc4ccc(C#CC5=CCCCC5)cc43)[C@@H](C(=O)N3CCCCCCC3)[C@H]12 | composite z-score | 3.35 |
